- assay_text: Selectivity index, ratio of GI50 for human PANC1 cells to MIC for active stage of Mycobacterium tuberculosis H37Ra ATCC 25177
- Format: toxicity
- condition_set: PANC-1 cells, read-out: Selectivity Index
Exercise: state measured selectivity ratio for each of the compounds provided.

COc1cc(-c2nc(SCCCn3cnc4sc5c(c4c3=O)CCCC5)[nH]c(=O)c2C#N)cc(OC)c1OC 2
COc1cc(-c2nc(SCCCn3cnc4sc5c(c4c3=O)CCCC5)n(C)c(=O)c2C#N)cc(OC)c1OC 1
COc1cc(-c2[nH]c(=S)[nH]c(=O)c2C#N)cc(OC)c1OC > 3
CCCCCCCCn1c(SCCCn2cnc3sc4c(c3c2=O)CCCC4)nc(-c2cc(OC)c(OC)c(OC)c2)c(C#N)c1=O > 3

Answer for every listed entry: what is its selectivity ratio? The entries follow.
1. CCCc1cc2c(=O)n(CCCSc3nc(-c4cc(OC)c(OC)c(OC)c4)c(C#N)c(=O)[nH]3)cnc2s1
2. CCCCCCCc1cc2c(=O)n(CCSc3nc(-c4cc(OC)c(OC)c(OC)c4)c(C#N)c(=O)[nH]3)cnc2s1

Outgoing:
["> 3", 7]
